- test system: Cdk4/cyclin D1 (Homo sapiens)
- assay comment: Biochemical kinase assay Cdk4/cyclin D1
- details: Table 6
metric: IC50

Would you please look over these solved cases?
molecule	IC50
Cc1cc(OCCN2CCCN(C)CC2)ccc1-c1[nH]nc2c1C(=O)c1c(NC(=O)NN3CCN(C)CC3)cccc1-2 [Compound A9]	< 100 nM
CN1CCN(NC(=O)Nc2cccc3c2C(=O)c2c-3n[nH]c2-c2ccc(O)cc2)CC1 [Compound A15]	< 100 nM
CCN(CCO)S(=O)(=O)c1cc(Cl)c(-n2nc(C(C)C)c3c(=O)[nH]c(Cc4ccc(OCCN5CCOCC5)cc4)nc32)c(Cl)c1 [Compound A55]	< 10000 nM
O=C(Nc1cccc2c1C(=O)c1c(-c3ccc(OCCN4CCOCC4)cc3Cl)n[nH]c1-2)NN1CCOCC1 [Compound A28]	< 1000 nM
CC(C)c1nn(-c2c(Cl)cccc2Cl)c2nc(Cc3ccc(C(=O)NOCCN4CCOCC4)cc3)[nH]c(=O)c12 [Compound A52]	< 1000 nM
CC(C)c1nn(-c2c(Cl)cc(S(N)(=O)=O)cc2Cl)c2nc(Cc3ccc(OCCN4CCOCC4)cc3)[nH]c(=O)c12 [Compound A54]	< 1000 nM
CN1CCN(NC(=O)Nc2cccc3c2C(=O)c2c-3n[nH]c2-c2ccc(OCCn3cccn3)cc2)CC1 [Compound A17]	< 100 nM
O=C(Nc1cccc2c1C(=O)c1c-2n[nH]c1-c1ccc(O)c(CN2CCOCC2)c1)NN1CCOCC1 [Compound A10]	< 1000 nM

Bench note: what IC50 did CC(C)c1nn(-c2c(Cl)cc(Cl)cc2Cl)c2nc(Cc3ccc(OCCN4CCN(C(C)C)CC4)cc3)[nH]c(=O)c12 [Compound A1] show? < 1000 nM

Look up IC50 for this molecule: COc1cc(-c2[nH]nc3c2C(=O)c2c(NC(=O)NN4CCOCC4)cccc2-3)ccc1OCCN1CCCC1 [Compound A31] < 100 nM

Return reported IC50; argument: Cc1cc(OCCN2CCN(C(C)C)CC2)ccc1-c1[nH]nc2c1C(=O)c1c(NC(=O)NN3CCN(C)CC3)cccc1-2 [Compound A19] < 1000 nM

Name the recorded IC50 for Cc1noc(COc2ccc(-c3[nH]nc4c3C(=O)c3c(NC(=O)NN5CCN(C)CC5)cccc3-4)cc2)n1 [Compound A45] . < 100 nM

Look up IC50: Cc1cc(OCCN2CCOCC2)ccc1-c1[nH]nc2c1C(=O)c1c(NC(=O)NN3CCN(C)CC3)cccc1-2 [Compound A7] < 100 nM

For CC(C)N1CCN(S(=O)(=O)c2ccc(-c3[nH]nc4c3C(=O)c3c(NC(=O)NN5CCOCC5)cccc3-4)cc2)CC1 [Compound A57] , what is its reported IC50? < 100 nM

====

- test system: Cdk4/cyclin D1 (Homo sapiens, UniProt P11802)
- Sequence (P11802 whole entry, species assumed): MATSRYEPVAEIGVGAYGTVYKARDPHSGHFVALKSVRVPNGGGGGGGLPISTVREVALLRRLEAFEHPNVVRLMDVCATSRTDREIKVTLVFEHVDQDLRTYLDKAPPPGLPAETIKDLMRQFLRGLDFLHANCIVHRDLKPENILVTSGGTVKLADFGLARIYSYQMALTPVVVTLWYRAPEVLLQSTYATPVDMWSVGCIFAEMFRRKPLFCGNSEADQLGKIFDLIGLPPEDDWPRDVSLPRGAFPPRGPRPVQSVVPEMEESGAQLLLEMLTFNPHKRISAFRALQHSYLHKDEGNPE
- Sequence (P24385 whole entry partner, species assumed): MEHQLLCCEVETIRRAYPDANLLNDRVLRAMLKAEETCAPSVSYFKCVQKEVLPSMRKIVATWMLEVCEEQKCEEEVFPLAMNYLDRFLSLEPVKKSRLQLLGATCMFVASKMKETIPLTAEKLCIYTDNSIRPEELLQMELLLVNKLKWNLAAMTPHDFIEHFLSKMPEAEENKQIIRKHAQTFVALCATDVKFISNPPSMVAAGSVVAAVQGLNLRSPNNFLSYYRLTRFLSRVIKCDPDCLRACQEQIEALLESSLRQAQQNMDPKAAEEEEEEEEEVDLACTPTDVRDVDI
- assay comment: Biochemical kinase assay Cdk4/cyclin D1
- details: Table 6
metric: IC50

Give the reported IC50 for CN1CCN(CCOc2ccc(-c3n[nH]c4c3C(=O)c3c(NC(=O)NN5CCN(C)CC5)cccc3-4)c(F)c2)CC1 [Compound A13] (system: Cdk4/cyclin D1 (Homo sapiens, UniProt P11802)). < 100 nM

Query for Cdk4/cyclin D1 (Homo sapiens, UniProt P11802): what IC50 does the record show for CC(C)N1CCN(CCOc2ccc(-c3n[nH]c4c3C(=O)c3c(NC(=O)NN5CCOCC5)cccc3-4)c(F)c2)CC1 [Compound A16] ? < 1000 nM

Identify the measured IC50 of Cc1cc(OCCN2CCCC2)ccc1-c1[nH]nc2c1C(=O)c1c(NC(=O)NN3CCOCC3)cccc1-2 [Compound A29] for Cdk4/cyclin D1 (Homo sapiens, UniProt P11802). < 100 nM

Form entry - test system: Cdk4/cyclin D1 (Homo sapiens, UniProt P11802); read-out: IC50; compound: CC(C)N1CCN(C(=O)COc2ccc(-c3[nH]nc4c3C(=O)c3c(NC(=O)NN5CCOCC5)cccc3-4)cc2)CC1 [Compound A76] < 100 nM

Form: Entry = CC(C)c1nn(-c2c(Cl)cc(Cl)cc2Cl)c2nc(Cc3ccc(OCCO)cc3)[nH]c(=O)c12 [Compound A61] | System = Cdk4/cyclin D1 (Homo sapiens, UniProt P11802) | IC50 = ____ < 1000 nM

Request body: readout IC50, system Cdk4/cyclin D1 (Homo sapiens, UniProt P11802), query Cc1nc(Cc2nc3c(c(C(C)C)nn3-c3c(Cl)cccc3Cl)c(=O)[nH]2)cs1 [Compound A58] . Return the value. < 10000 nM

Lab note: need IC50 with Cdk4/cyclin D1 (Homo sapiens, UniProt P11802) for entry CN(C)C(=O)CN1CCN(NC(=O)Nc2cccc3c2C(=O)c2c-3n[nH]c2-c2ccc(OCCN3CCCC3)cc2)CC1 [Compound A41] , please look it up. < 100 nM

API: value(readout=IC50, system=Cdk4/cyclin D1 (Homo sapiens, UniProt P11802)) for record CC(C)c1nn(-c2c(Cl)cccc2Cl)c2nc(Cc3ccc(O)c(CN4CCOCC4)c3)[nH]c(=O)c12 [Compound A5] < 10000 nM

====

- test system: Cdk2/cyclin E (Homo sapiens, UniProt P24941)
- assay comment: Biochemical kinase assay Cdk2/cyclin E
- details: Table 6
This section presents compounds with their documented IC50 values.

Some compounds with known IC50 results, for comparison:
CC(C)c1nn(-c2c(Cl)cccc2Cl)c2nc(Cc3ccc(NS(=O)(=O)CCCN4CCOCC4)cc3)[nH]c(=O)c12 < 100 nM
CN1CCN(NC(=O)Nc2cccc3c2C(=O)c2c-3n[nH]c2-c2ccc(OCCn3cccn3)cc2)CC1 < 100 nM
CC(C)N1CCN(S(=O)(=O)c2ccc(-c3[nH]nc4c3C(=O)c3c(NC(=O)NN5CCOCC5)cccc3-4)cc2)CC1 < 10 nM
CC(C)OC(=O)CN1CCN(NC(=O)Nc2cccc3c2C(=O)c2c-3n[nH]c2-c2ccc(OCCN3CCCC3)cc2)CC1 < 100 nM
CC(C)c1nn(-c2c(Cl)cc(Cl)cc2Cl)c2nc(Cc3ccc(NS(=O)(=O)CCCN4CCCCC4)cc3)[nH]c(=O)c12 < 100 nM
CN1CCN(NC(=O)Nc2cccc3c2C(=O)c2c(-c4ccc(OCCN5CCCC5)cc4F)n[nH]c2-3)CC1 < 100 nM

Given the compound `O=C(Nc1cccc2c1C(=O)c1c-2n[nH]c1-c1ccc(OCC(=O)N2CCCC2)cc1)NN1CCOCC1` , what is its reported IC50? < 100 nM

I'd like to know its IC50. The compound in question is `O=C(Nc1cccc2c1C(=O)c1c-2n[nH]c1-c1ccc(O)c(CN2CCOCC2)c1)NN1CCOCC1` < 100 nM

Which IC50 value belongs to `COc1cc(-c2[nH]nc3c2C(=O)c2c(NC(=O)NN4CCOCC4)cccc2-3)ccc1OCCN1CCCC1` ? < 100 nM

Quick one: IC50 of `CC(C)N1CCN(CCOc2ccc(-c3n[nH]c4c3C(=O)c3c(NC(=O)NN5CCOCC5)cccc3-4)cc2F)CC1` ? < 10 nM

Could you share which IC50 value was measured for `O=C(Nc1cccc2c1C(=O)c1c(-c3ccc(CN4CCOCC4)cc3)n[nH]c1-2)NN1CCOCC1` ? < 100 nM

====

- Tested on: HCT-116 cells
- assay comment: BrdU incorporation assay
- Assay type: cell-based
- details: Homo sapiens, HCT-116, 24 h; read-out: Brd U, concentration that inhibits BrdU incorporation by 50%
pIC50: −log10 of the molar value.
metric: pIC50

Below: 3 molecules and their reported pIC50.
molecule	pIC50
CC(C)N1CCN(Cc2cc(-c3[nH]nc4c3C(=O)c3c(NC(=O)NN5CCOCC5)cccc3-4)ccc2O)CC1 [K]	> 7.00
CCCN(CCOc1ccc(-c2[nH]nc3c2C(=O)c2c(NC(=O)NN4CCOCC4)cccc2-3)cc1)CC1CC1 [G]	> 8.00
Cc1cc(OCCN2CCCC2)ccc1-c1[nH]nc2c1C(=O)c1c(NC(=O)NN3CCN(C)CC3)cccc1-2 [L]	> 7.00

What value of pIC50 has been reported for the following molecule? O=C(Nc1cccc2c1C(=O)c1c-2n[nH]c1-c1ccc(OCCN2CCCC2)cc1)NN1CCOCC1 [Compound I] > 8.00

I'd like to know its pIC50. The molecule in question is CC(C)c1nn(-c2c(Cl)cccc2Cl)c2nc(Cc3ccc(O)c(CN4CCN(C(C)C)CC4)c3)[nH]c(=O)c12 [Compound C] > 7.00

Entry under review: CC(C)N1CCN(CCOc2ccc(-c3[nH]nc4c3C(=O)c3c(NC(=O)NN5CCOCC5)cccc3-4)cc2)CC1 [E] . Reported pIC50? > 8.00

Recorded pIC50 for CN1CCN(NC(=O)Nc2cccc3c2C(=O)c2c-3n[nH]c2-c2ccc(OCCN3CC[C@H](O)C3)cc2)CC1 [O] , please? > 7.00
